Molecular target: HRas^G12V (Homo sapiens (Human), UniProt P01112, G12V)
Sequence (P01112 1-166 G12V): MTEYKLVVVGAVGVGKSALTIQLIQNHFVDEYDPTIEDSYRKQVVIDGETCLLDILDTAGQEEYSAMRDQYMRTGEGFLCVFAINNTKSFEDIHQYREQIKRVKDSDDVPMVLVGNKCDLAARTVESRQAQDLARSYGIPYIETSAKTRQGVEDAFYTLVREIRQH
Assay: Overall binding/activity in the various assays (NMR consensus binding)
measurementType: Binding to HRas^G12V (in words)

molecule: O=C(O)C1CN(C(=O)Cc2c[nH]c3cc(F)ccc23)C1 [Compound 10113]
measValue: low or no binding
--
molecule: CCOC(=O)[C@H](C)NC(=O)Cc1c[nH]c2cc(F)ccc12 [Compound 10038]
measValue: low or no binding
--
molecule: O=C(Cc1c[nH]c2cc(F)ccc12)NCCc1ccc(F)cc1 [Compound 10031]
measValue: low or no binding
--
molecule: O=C(Cc1c[nH]c2cc(F)ccc12)Nc1cccc(F)c1 [Compound 10072]
measValue: low or no binding
--
molecule: COC(=O)Cc1c[nH]c2cc(F)ccc12 [Compound 11001]
measValue: low or no binding
--
molecule: CN1CCC(NC(=O)Cc2c[nH]c3cc(F)ccc23)C(C(=O)O)C1 (stereo not drawn) [Compound 10119]
measValue: low or no binding
--
molecule: O=C(c1ccc(F)cc1F)N1CCC(c2c[nH]c3cc(F)ccc23)CC1 [Compound 11026]
measValue: low or no binding
--
molecule: CN1CCN(C(=O)Cc2c[nH]c3cc(F)ccc23)[C@H](C(=O)O)C1 [Compound 10158]
measValue: low or no binding
--
molecule: Fc1ccc2c(C3CCNC3)c[nH]c2c1 (stereo not drawn) [Compound 11007]
measValue: low or no binding

---

Molecular target: HRas^G12V (Homo sapiens (Human), UniProt P01112, G12V)
Assay: 19F T2-CPMG NMR score
Type: binding
Decision: 19F T2-CPMG Score >= 8 yields Y, all other cases yield N.

molecule: Fc1ccc2c(C3CCNCC3)c[nH]c2c1 [Compound 11012]
className: Y

molecule: O=C(NCCc1c[nH]c2cc(F)ccc12)C1CCOC1 (stereo not drawn) [Compound 10063]
className: N

molecule: CCC(C(=O)N1CC(C)C1)c1c[nH]c2cc(F)ccc12 (stereo not drawn) [Compound 11005]
className: Y

molecule: O=C(O)CC(c1ccccc1F)c1c[nH]c2cc(F)ccc12 (stereo not drawn) [Compound 11044]
className: Y

molecule: O=C(Cc1c[nH]c2cc(F)ccc12)Nc1ccc2c(c1)OCO2 [Compound 10059]
className: Y

molecule: O=C1C[C@H](c2c[nH]c3cc(F)ccc23)C(=O)N1 (single isomer, unassigned) [Compound 11039]
className: Y

molecule: CC(=O)N1CCC[C@@H](NC(=O)Cc2c[nH]c3cc(F)ccc23)C1 [Compound 10074]
className: N

molecule: CN1CCC[C@H]1C(=O)NCCc1c[nH]c2cc(F)ccc12 [Compound 10036]
className: N

---

Target: HRas^G12V (Homo sapiens (Human), UniProt P01112, G12V)
Assay: 19F T2-CPMG NMR score
Assay type: binding
We begin with a simple list: items and their reported 19F T2-CPMG Score.

compound: COc1cccc(NC(=O)Cc2c[nH]c3cc(F)ccc23)c1
19F T2-CPMG Score: 18.47
--
compound: CC(C)COC1CCN(C(=O)Cc2c[nH]c3cc(F)ccc23)CC1
19F T2-CPMG Score: 12.96
--
compound: O=C(O)[C@@H]1CCCN(C(=O)Cc2c[nH]c3cc(F)ccc23)C1
19F T2-CPMG Score: 2.26
--
compound: COC(=O)C1CN(C)CCC1NC(=O)Cc1c[nH]c2cc(F)ccc12 (stereo not drawn)
19F T2-CPMG Score: 2.43
--
compound: O=C(O)[C@H]1CCCN(C(=O)Cc2c[nH]c3cc(F)ccc23)C1
19F T2-CPMG Score: 2.85
--
compound: COCC1(C)CN(C(=O)Cc2c[nH]c3cc(F)ccc23)C1
19F T2-CPMG Score: 13.32
--
compound: CCOC(=O)C1CCN(C(=O)Cc2c[nH]c3cc(F)ccc23)CC1
19F T2-CPMG Score: 13.29
--
compound: CN1CCC(NC(=O)Cc2c[nH]c3cc(F)ccc23)C(C(=O)O)C1 (stereo not drawn) [Compound 10117]
19F T2-CPMG Score: 10.14
--
compound: CC1CN(C(=O)Cc2n[nH]c3cc(F)ccc23)C1
19F T2-CPMG Score: 9.44

---

Biological target: HRas^G12V (Homo sapiens (Human), UniProt P01112, G12V)
Assay: 19F DLB (ligand-observed 19F NMR) score
Format: binding
Parameters: scale not given here
Procedure: All NMR experiments were collected using 3 mm NMR tubes on a 600 MHz Bruker Avance III spectrometer equipped with a QCI helium cryoprobe and a SampleJet sample changer. The buffer used for NMR experiments was 25 mM sodium phosphate pH 7.4, 150 mM NaCl, 5 mM MgCl2, 1 mM TCEP-d16, 10% D2O. Data were processed using Bruker TopSpin. […]
measurementType: 19F DLB Score

compound: O=C(O)CN1CCC(NC(=O)Cc2c[nH]c3cc(F)ccc23)CC1 [Compound 10108]
measurementTarget: HRas^G12V (Homo sapiens (Human), UniProt P01112, G12V)
measValue: 1.34
--
compound: COCCNC(=O)Cc1c[nH]c2cc(F)ccc12 [Compound 10025]
measurementTarget: HRas^G12V (Homo sapiens (Human), UniProt P01112, G12V)
measValue: 1.22
--
compound: CC(=O)N1CCC[C@@H](NC(=O)Cc2c[nH]c3cc(F)ccc23)C1 [Compound 10074]
measurementTarget: HRas^G12V (Homo sapiens (Human), UniProt P01112, G12V)
measValue: 1.23
--
compound: O=C(O)CC(c1ccccc1F)c1c[nH]c2cc(F)ccc12 (stereo not drawn) [Compound 11044]
measurementTarget: HRas^G12V (Homo sapiens (Human), UniProt P01112, G12V)
measValue: 2.77
--
compound: CCOC(=O)[C@@H]1COCCN1C(=O)Cc1c[nH]c2cc(F)ccc12 [Compound 10140]
measurementTarget: HRas^G12V (Homo sapiens (Human), UniProt P01112, G12V)
measValue: 1.49
--
compound: NC(=O)C1CN(C(=O)Cc2c[nH]c3cc(F)ccc23)C1 [Compound 10114]
measurementTarget: HRas^G12V (Homo sapiens (Human), UniProt P01112, G12V)
measValue: 2.14
--
compound: CC(=O)N1CC[C@H](NC(=O)Cc2c[nH]c3cc(F)ccc23)C1 [compound 10090]
measurementTarget: HRas^G12V (Homo sapiens (Human), UniProt P01112, G12V)
measValue: 1.51
--
compound: CN(C)CCOC1CN(C(=O)Cc2c[nH]c3cc(F)ccc23)C1 [compound 10110]
measurementTarget: HRas^G12V (Homo sapiens (Human), UniProt P01112, G12V)
measValue: 2.87

---

Molecular target: wild type HRAS (Homo sapiens (Human), UniProt P01112)
Sequence (P01112 whole entry): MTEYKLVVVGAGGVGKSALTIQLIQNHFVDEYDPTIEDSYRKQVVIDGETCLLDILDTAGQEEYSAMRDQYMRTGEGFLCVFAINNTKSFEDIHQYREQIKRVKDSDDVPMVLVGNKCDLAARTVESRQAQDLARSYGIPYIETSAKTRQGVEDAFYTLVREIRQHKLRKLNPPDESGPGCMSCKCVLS

compound: CN(C)Cc1c[nH]c2cc(F)ccc12 [FS-1255, reference compound]
measurementTarget: wild type HRAS (Homo sapiens (Human), UniProt P01112)
Kd, mM: 6.07

---

Biological target: HRas^G12V (Homo sapiens (Human), UniProt P01112, G12V)
Experiment: 19F DLB (ligand-observed 19F NMR) score
Assay type: binding
Parameters: scale not given here

compound: O=C(Cc1c[nH]c2cc(F)ccc12)Nc1ccc2[nH]ccc2c1
19F DLB Score: 2.72
--
compound: O=C(Cc1c[nH]c2cc(F)ccc12)N1CCC(O)CC1
19F DLB Score: 3.04
--
compound: CCOC(=O)CNC(=O)Cc1c[nH]c2cc(F)ccc12
19F DLB Score: 1.22
--
compound: CCOC(=O)C[C@@H]1CN(C(=O)Cc2c[nH]c3cc(F)ccc23)CCO1
19F DLB Score: 1.19
--
compound: O=C(C1CCNCC1)N1CCC(c2c[nH]c3cc(F)ccc23)CC1
19F DLB Score: 2.79
--
compound: CN(C)CC(=O)Nc1cccc(NC(=O)Cc2c[nH]c3cc(F)cc(Cl)c23)c1
19F DLB Score: <LLOQ
--
compound: CC(C)(C)OC(=O)n1cc(CC#N)c2ccc(F)cc21
19F DLB Score: 0.4
--
compound: COCC1(O)CN(C(=O)Cc2c[nH]c3cc(F)ccc23)C1
19F DLB Score: 1.89
--
compound: O=C(Cc1c[nH]c2cc(F)ccc12)NCCN1CCOCC1
19F DLB Score: 1.57
--
compound: CCOC(=O)[C@H]1CCCCN1C(=O)Cc1c[nH]c2cc(F)ccc12
19F DLB Score: 2.85
--
compound: COC(=O)C1CN(C(=O)Cc2c[nH]c3cc(F)ccc23)C1
19F DLB Score: 2.16
--
compound: O=C(c1ccccc1)N1CCC(c2c[nH]c3cc(F)ccc23)CC1
19F DLB Score: 1
--
compound: CC(C(=O)N1CCC1)c1c[nH]c2cc(F)ccc12 (stereo not shown)
19F DLB Score: 2.94
--
compound: C[C@H](NC(=O)Cc1c[nH]c2cc(F)ccc12)C(=O)O
19F DLB Score: 1.09
--
compound: CC1CN(C(=O)Cc2cc3ccc(F)cc3[nH]2)C1
19F DLB Score: 0.89
--
compound: CCOC(=O)[C@@H]1CCCN(C(=O)Cc2c[nH]c3cc(F)ccc23)C1
19F DLB Score: 2.07
--
compound: COC(=O)[C@@H]1CN(C(=O)Cc2c[nH]c3cc(F)ccc23)CCN1C
19F DLB Score: 1.61
--
compound: CC(C)(C)OC(=O)N1CCC(C(=O)N2CCC(c3c[nH]c4cc(F)ccc34)CC2)C1 (stereo not shown)
19F DLB Score: 1.86
--
compound: COC(=O)[C@@H]1CN(C)CCN1C(=O)Cc1c[nH]c2cc(F)ccc12
19F DLB Score: 3.62
--
compound: O=C(C1CCNCC1)N1CCC(c2c[nH]c3cc(F)ccc23)C1 (stereo not shown)
19F DLB Score: 2.37
--
compound: CCOC(=O)C(CC(C)C)NC(=O)Cc1c[nH]c2cc(F)ccc12 (stereo not shown)
19F DLB Score: 1.35
--
compound: CC1CN(C(=O)Cc2cc(F)cc3[nH]ccc23)C1
19F DLB Score: 0.93
--
compound: Fc1ccc2c(C3CCNC3)c[nH]c2c1 (stereo not shown)
19F DLB Score: 1.76
--
compound: CCOC(=O)CC(c1ccccc1F)c1c[nH]c2cc(F)ccc12 (stereo not shown)
19F DLB Score: 16.69
--
compound: CC(=O)NC[C@H]1CN(C(=O)Cc2c[nH]c3cc(F)ccc23)CCO1
19F DLB Score: 1.65
--
compound: O=C(Cc1c[nH]c2ncc(F)cc12)N1CCC1
19F DLB Score: 0.91
--
compound: CCC(C(=O)N1CC(C)C1)c1c[nH]c2cc(F)ccc12 (stereo not shown)
19F DLB Score: 3.19
--
compound: CN1CCC[C@@H]1C(=O)NCCc1c[nH]c2cc(F)ccc12
19F DLB Score: 1.01
--
compound: O=C(c1ccc(F)cc1F)N1CCC(c2c[nH]c3cc(F)ccc23)C1 (stereo not shown)
19F DLB Score: 2.51
--
compound: CC(CCO)NC(=O)Cc1c[nH]c2cc(F)ccc12 (stereo not shown)
19F DLB Score: 1.23
--
compound: CC(=O)Nc1cccc(NC(=O)Cc2c[nH]c3cc(F)ccc23)c1
19F DLB Score: 3.12
--
compound: CC(C)(C(=O)N1CCC1)c1c[nH]c2cc(F)ccc12
19F DLB Score: 1.43
--
compound: O=C(O)C1CN(C(=O)Cc2c[nH]c3cc(F)ccc23)C1
19F DLB Score: 1.29
--
compound: CCOC(=O)C1CCN(C(=O)Cc2c[nH]c3cc(F)ccc23)CC1
19F DLB Score: 2.01
--
compound: CN1CCC(NC(=O)Cc2c[nH]c3cc(F)ccc23)C(C(=O)O)C1 (stereo not shown) [Compound 10119]
19F DLB Score: 0.87
--
compound: CCOC(=O)[C@@H](NC(=O)Cc1c[nH]c2cc(F)ccc12)C(C)C
19F DLB Score: 1.23
